# Read-out: Vascular cell adhesion molecule 1 (VCAM1), VCAM1 (gene 7412)
# ASSAY TEXT: BSK_LPS_VCAM1: BioMAP Diversity Plus: LPS Assay for Vascular cell adhesion molecule 1 (VCAM1) Biomarker Activity (AID 2283086)
# RUN PARAMETERS: primary human HUVEC with PBMC; actives raise or lower the signal
Calls of active or inactive are those of the source. The calls were made as follows: active = hit-call score of the fitted dose curve at least 0.9, where 1 is the maximum; inactive = score below 0.9.
Classes used: active, inactive

# COMPOUND, CATEGORY LABEL
records = [
    ("N#Cc1cc(Br)c(O)c(Br)c1", "inactive"),
    ("CN(C)C(=S)SSC(=S)N(C)C", "active"),
    ("COP(=S)(OC)Oc1nc(Cl)c(Cl)cc1Cl", "active"),
    ("COc1ccc(C(c2ccc(OC)cc2)C(Cl)(Cl)Cl)cc1", "active"),
    ("C=CCC1=C(C)C(OC(=O)C2C(C=C(C)C)C2(C)C)CC1=O (stereo not drawn)", "active"),
    ("C=CCC1=C(C)[C@@H](OC(=O)[C@@H]2[C@@H](C=C(C)C)C2(C)C)CC1=O", "active"),
    ("CCON=C(CC)C1=C(O)CC(c2c(C)cc(C)cc2C)CC1=O (stereo not drawn)", "inactive"),
    ("CCCCOC(=O)c1ccccc1C(=O)OCCCC", "inactive"),
]
